# assayed.target: MMP-2 (Homo sapiens)
# Construct: made in house; provided by Dr. Gregory Goldberg, Washington University
# Sequence (P08253 110-660): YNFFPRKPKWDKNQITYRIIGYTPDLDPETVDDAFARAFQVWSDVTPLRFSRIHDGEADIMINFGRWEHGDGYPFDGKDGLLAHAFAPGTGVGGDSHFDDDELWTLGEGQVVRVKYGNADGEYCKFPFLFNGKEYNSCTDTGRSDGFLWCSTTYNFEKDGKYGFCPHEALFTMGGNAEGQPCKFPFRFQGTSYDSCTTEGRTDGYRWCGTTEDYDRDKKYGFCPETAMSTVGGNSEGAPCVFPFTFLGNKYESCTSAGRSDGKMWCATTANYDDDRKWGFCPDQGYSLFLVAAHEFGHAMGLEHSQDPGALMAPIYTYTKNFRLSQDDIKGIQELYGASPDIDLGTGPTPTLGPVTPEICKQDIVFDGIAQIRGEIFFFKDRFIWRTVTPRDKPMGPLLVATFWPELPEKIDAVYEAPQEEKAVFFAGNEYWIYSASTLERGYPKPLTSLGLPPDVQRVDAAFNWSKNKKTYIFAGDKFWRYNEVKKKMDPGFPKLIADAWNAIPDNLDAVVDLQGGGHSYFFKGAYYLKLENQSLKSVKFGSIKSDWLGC
# test: biochemical
# test.settings: recombinant human MMP-2, MCA peptide substrate 4 μM, pH 7.5, room temperature; read-out: MMP-2 IC50
assay.readout: IC50 (nM)

Worked cases, answers included:
| compound | readout.number |
| --- | --- |
| Cc1cc(C)cc(OC2CCN(c3ccc(S(=O)(=O)C4(C(=O)NO)CCOCC4)cc3)CC2)c1 | 600 |
| O=C(c1ccccc1)N1CCN(c2ccc(S(=O)(=O)C3(C(=O)NO)CCOCC3)cc2)CC1 | 650 |

(a) N#Cc1ccc(S(=O)(=O)N2CCN(c3ccc(S(=O)(=O)C4(C(=O)NO)CCOCC4)cc3)CC2)cc1
(b) O=C(NO)C1(S(=O)(=O)c2ccc(N3CCCC(COCc4cccc(C(F)(F)F)c4)C3)cc2)CCOCC1 (stereo not shown)
Exercise: compare a and b ; which one has the greater IC50? Give the label under which the chosen entry appears.
b
(b: 210 nM, a: 41.8 nM)
